Each entry below carries its recorded melting point.

Past entries and their recorded results:
CCCn1c(=O)c2nc([C@@H]3CCC[C@H]3c3ccccc3)[nH]c2n(CCC)c1=O (relative stereo)
152 to 153 °C
O=C1NC(=O)C(Cc2ccc(OCCN3C(=O)c4ccccc4C3=O)cc2)S1 (centres undefined)
192 to 194 °C
Cc1cc(-n2ccnc2)c2cccc(OCc3c(Cl)ccc(S(=O)(=O)N4CCC[C@H]4C(=O)N(C)CCN(C)C)c3Cl)c2n1
98 °C

Now turn to the next compound.
May I ask what melting point has been recorded for Cn1nc(C#N)c(Nc2ccc(F)cc2[N+](=O)[O-])n1 ? 159 to 160 °C

Every entry's value here was drawn from a melting point compilation (Tetko et al.; mined from patent text by program, amines drawn as free bases though some values may be those of a salt).
